Hey, just so you know, these numbers are from PubChem BioAssay (NCATS).

Assay: Quantitative High-Throughput drug screen in 47 multiple myeloma cell lines against the NCATS MIPE library collection: JIM3_ECACC cell viability assay (AID 1918963; note: nearly all actives have a fitted effect of over 35% in size)
Conditions: JIM3 myeloma viability, CellTiter-Glo ATP, 48 h; series mostly up to 45.8 µM
Inconclusive results are not listed. Calls of active or inactive are those of the source. Calls come from the whole dose curve; as a rule, active = well fitted cell-killing curve with a large enough effect; inconclusive = small, poorly fitted or top-dose-only effect; inactive = no such curve, though single readings can be large or run the other way.
Labels: true (1) for active, false (0) for inactive

[[record]]
compound = "COc1cccc(-c2cc(=O)c3ccccc3o2)c1N"
discrete_label = "true (1)"

[[record]]
compound = "CN(C)Cc1ccc(-c2nc3cccc4c3n2CCNC4=O)cc1"
discrete_label = "true (1)"

[[record]]
compound = "COC(=O)C1=CO[C@@H](O)[C@@H]2C(CO)=CC[C@@H]12"
discrete_label = "true (1)"

[[record]]
compound = "Nc1nc(F)nc2c1ncn2[C@@H]1O[C@H](COP(=O)(O)O)[C@@H](O)[C@H]1O"
discrete_label = "false (0)"

[[record]]
compound = "Cc1c(NC(=O)c2ccc(C(C)(C)C)cc2)cccc1-c1cn(C)c(=O)c(Nc2ccc(C(=O)N3CCOCC3)cc2)n1"
discrete_label = "true (1)"

[[record]]
compound = "N#CC(=C(N)Sc1ccccc1N)C(C#N)=C(N)Sc1ccccc1N"
discrete_label = "true (1)"

[[record]]
compound = "C[C@]12CC[C@@H]3c4ccc(O)cc4C[C@@H](CCCCCCCCCS(=O)CCCC(F)(F)C(F)(F)F)[C@H]3[C@H]1CC[C@H]2O (some centres not stated)"
discrete_label = "false (0)"


---

Experiment: qHTS of pediatric cancer cell lines to identify multiple opportunities for drug repurposing: Primary screen for Rh41 cells (AID 1347108); note: nearly all actives have a fitted effect of over 70% in size; note: potency is the fitted concentration of half-maximal effect
Conditions: Rh41 rhabdomyosarcoma viability, CellTiter-Glo luminescence, 48 h; series mostly up to 46 µM
Inconclusive results are not listed. Activity calls are given as the source filed them. The call rests on the fitted dose curve; in most records, active means well fitted cell-killing curve with a large enough effect; inconclusive means small, poorly fitted or top-dose-only effect; inactive means no such curve, though single readings can be large or run the other way.
Parameter: Potency

[[record]]
compound = "Nc1ncnc2ccccc12"
result = "23.5 µM (active)"

[[record]]
compound = "NC1CCC(Nc2nc(Nc3ccc(C(=O)N4CCCCC4)cc3)c3ncn(-c4cccc(F)c4)c3n2)CC1 (stereo unspecified)"
result = "inactive"

[[record]]
compound = "CC(=O)CCCCn1c(=O)c2c(ncn2C)n(C)c1=O"
result = "inactive"

[[record]]
compound = "COC(=O)C1=CO[C@@H](O)[C@@H]2C(CO)=CC[C@@H]12"
result = "inactive"

[[record]]
compound = "OC[C@H]1O[C@@H](n2cnc3c2NC=NC[C@@H]3O)C[C@H]1O"
result = "inactive"

[[record]]
compound = "COc1cc(NC(=O)c2ccc(-c3ccc(Cl)cc3)o2)cc(OC)c1"
result = "7.43 µM (active)"


---

Tested on: Zika virus NS2B-NS3 protease (unlinked)
Test: Optimization of GU AMC qHTS for Zika virus inhibitors: Unlinked NS2B-NS3 protease assay (AID 1347151); note: nearly all actives have a fitted effect of over 80% in size
Conditions: recombinant ZIKV NS2B-NS3 protease, fluorogenic AMC substrate; series mostly up to 52.5 µM
Excerpt: Avindra Nath, Ph.D., National Institute of Neurological Disorders and Stroke (NINDS), Bethesda, MD Radhakrishnan Padmanabhan, Ph.D., Georgetown University (GU), Washington D.C. Zika Virus causes congenital defects, including microcephaly and is associated with Guillain-Barre syndrome, eningoencephalitis and myelitis in infected adult. […]
Results filed as inconclusive are left out. The source made the active and inactive calls. The call rests on the fitted dose curve; in most records, active means well fitted inhibition curve with a large enough effect; inconclusive means small, poorly fitted or top-dose-only effect; inactive means no such curve, though single readings can be large or run the other way.
Labels: active, inactive

[[record]]
compound = "NC(N)=Nc1nc(CSCC/C(N)=N/S(N)(=O)=O)cs1"
discrete_label = "inactive"

[[record]]
compound = "O=c1c(-c2ccc(O)cc2)coc2cc(O)ccc12"
discrete_label = "active"

[[record]]
compound = "Clc1ccc(C(c2ccc(Cl)cc2)n2cc[n+](CC(OCc3ccc(Cl)cc3Cl)c3ccc(Cl)cc3Cl)c2)cc1 (stereo not drawn)"
discrete_label = "inactive"

[[record]]
compound = "CC=CCC(C)C(O)C1C(=O)NC(CC)C(=O)N(C)CC(=O)N(C)C(CC(C)C)C(=O)NC(C(C)C)C(=O)N(C)C(CC(C)C)C(=O)NC(C)C(=O)NC(C)C(=O)N(C)C(CC(C)C)C(=O)N(C)C(CC(C)C)C(=O)N(C)C(C(C)C)C(=O)N1C (stereo not drawn)"
discrete_label = "inactive"

[[record]]
compound = "C[C@H](NC(=O)C(=O)Nc1ccccc1C(C)(C)C)C(=O)N[C@@H](CC(=O)O)C(=O)COc1c(F)c(F)cc(F)c1F"
discrete_label = "inactive"

[[record]]
compound = "COc1ccc(Cc2nccc3cc(OC)c(OC)cc23)cc1OC"
discrete_label = "inactive"

[[record]]
compound = "CCCCC1C(=O)N(c2ccccc2)N(c2ccccc2)C1=O"
discrete_label = "inactive"

[[record]]
compound = "O=C1NCC2(CCN(CCc3ccccc3)CC2)O1"
discrete_label = "inactive"

[[record]]
compound = "CC(C)NCC(O)COc1cccc2[nH]ccc12 (stereo not drawn)"
discrete_label = "inactive"

[[record]]
compound = "CCn1cc(C(=O)O)c(=O)c2ccc(C)nc21"
discrete_label = "inactive"

[[record]]
compound = "COc1cccc(-c2cc(=O)c3ccccc3o2)c1N"
discrete_label = "inactive"

[[record]]
compound = "NCCS"
discrete_label = "inactive"

[[record]]
compound = "CCN(CC)C(=O)c1ccc(O)c(OC)c1"
discrete_label = "inactive"

